target: CDK2:CCNE1 (Homo sapiens (Human)); test: NanoBRET assay in MCF-7 cells, CDK2; conditions: transfected MCF-7 cells, 2 hours, n = 1 or average
quantity measured: IC50 (µM)
Give the value in µM but do not write µM after it.

compound=CC[C@H](Nc1nc(N[C@H]2CCN(S(=O)(=O)NC[C@H]3COCCO3)C2)c2ncn(CC)c2n1)[C@@H](C)O quantity_measured=IC50 reported_value=0.057

// IC50 lookup, compound = CCNS(=O)(=O)N1CC[C@H](Nc2nc(N[C@H](CC)C(C)=O)nc3c2ncn3CC)C1 , result: 0.088

Per the records, this compound ( CC[C@@H](CO)Nc1nc(N[C@H]2CCN(S(=O)(=O)NC)C2)c2ncn(CC)c2n1 ) has IC50 equal to 0.123

Lab note: measured IC50 of CCn1cnc2c(N[C@H]3CCN(S(=O)(=O)NC)C3)nc(-c3cccc4c3CC[C@]4(C)O)nc21 (relative stereo) was 0.018

Per the records, this compound ( CC[C@H](Nc1nc(N[C@@H]2CN(S(=O)(=O)c3ncc[nH]3)C[C@H]2F)c2ncn(C)c2n1)[C@@H](C)O (relative stereo) ) has IC50 equal to 0.069

IC50 measured on CCn1cnc2c(N[C@H]3CCN(S(=O)(=O)CCOC)C3)nc(N[C@@H](CO)C(C)C)nc21 = 0.027
